biological target: Prostaglandin G/H synthase 2 (Homo sapiens); assay: Inhibition of COX2-mediated PGE2 production in PMA-Ion-stimulated human PBL at 10 uM after 24 hrs by ELISA
Activity calls are given as the source filed them. The calls are words filed in the database; no cut-off is given here.
experimental endpoint: inhibition

Examples from the recorded data:
test smiles: CS(=O)(=O)Nn1c(Sc2ccc([N+](=O)[O-])cc2)nc2sc(-c3ccccc3)cc2c1=O
endpoint result: 20%

test smiles: CS(=O)(=O)Nn1c(Sc2ccccc2[N+](=O)[O-])nc2sc(-c3ccccc3)cc2c1=O
endpoint result: 20%

test smiles: CS(=O)(=O)Nn1c(Sc2ccc(F)cc2F)nc2sc(-c3ccccc3)cc2c1=O
endpoint result: > 50%

test smiles: O=c1c2sc3ccccc3c2nc2n1N=C(c1ccccc1)CS2
endpoint result: inactive

test smiles: CS(=O)(=O)Nn1c(Sc2ccccc2C(=O)O)nc2sc(-c3ccccc3)cc2c1=O
endpoint result: 20%

Query: Consider the compound shown here: COc1ccc(C2=Nn3c(nc4sc(-c5ccccc5)cc4c3=O)SC2)cc1 What is its recorded inhibition?
Response: inactive

Origin of the recorded values: ChEMBL document CHEMBL2086368
